System: H9c2 cardiomyocytes, 2-deoxyglucose stress, ATP luminescence, 2 h
Test: H9c2 cell survival under 2-deoxyglucose stress – uHTS hits, dose response (AID 588780)
Calls of active or inactive are those of the source.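 Rule for the calls: active = compounds whose fitted half-maximal concentration in the cell-protection dose series is at or below a set limit; inactive = the rest.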
Classes used: TRUE = active, FALSE = inactive

{"compound": "Nc1nonc1-n1nnc(C(=O)N/N=C/c2ccccn2)c1CNc1ccccc1", "label": "FALSE"}
{"compound": "NC(=O)c1c(NC(=O)Cn2nc(C(=O)O)c3ccccc3c2=O)sc2c1CCC2", "label": "FALSE"}
{"compound": "CC(OC(=O)Cc1n[nH]c(=O)c2ccccc12)C(=O)Nc1ccc(F)cc1 (stereo not given)", "label": "FALSE"}
{"compound": "O=C(NCCN1CCN(c2ccccc2F)CC1)c1cccn2c(=O)c3ccccc3nc12", "label": "TRUE"}
{"compound": "COC(=O)Cc1n[nH]c(=O)c2ccccc12", "label": "FALSE"}
{"compound": "Cn1c2ccccc2c(=O)c2ccc(NCc3ccc4c(c3)OCO4)cc21", "label": "TRUE"}
{"compound": "O=C(CCc1nc2ccccc2c(=O)[nH]1)N1CCN(S(=O)(=O)c2cccc(F)c2)CC1", "label": "FALSE"}
{"compound": "CCC1(CC)NC(=O)N(CC(=O)OCC(=O)Nc2ccccc2[N+](=O)[O-])C1=O", "label": "FALSE"}
{"compound": "Cn1c(C(=O)NCc2cccs2)cc2c(=O)n(C)c3ccccc3c21", "label": "FALSE"}
{"compound": "CC(C)NC(=O)COC(=O)Cn1[nH]c(=O)c2ccccc2c1=O", "label": "FALSE"}

---

Tested on: H9c2 cardiomyocytes, 2-deoxyglucose stress, ATP luminescence, 2 h
Assay: H9c2 cell survival under 2-deoxyglucose stress – uHTS hits, dose response (AID 588780)
Active and inactive are the calls of the source.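 How the source made its calls: active means compounds whose fitted half-maximal concentration in the cell-protection dose series is at or below a set limit; inactive means the rest.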
Classes used: t (active), f (inactive)

{"compound": "COc1cc(CCNc2ccc3nnc(-c4ccccc4)n3n2)cc(OC)c1OC", "label": "t"}
{"compound": "COc1cccc(-c2cnc3c(NC=O)cc(-c4cccc(C(=O)N(C)C)c4)cn23)c1", "label": "t"}
{"compound": "Cc1ccc(NC(=O)CCc2nc3ccccc3c(=O)[nH]2)cc1S(=O)(=O)N1CCOCC1", "label": "f"}
{"compound": "O=C(Cc1n[nH]c(=O)c2ccccc12)NCc1ccc(Cl)cc1", "label": "f"}
{"compound": "CCN(CC(=O)Nc1c(F)cccc1F)C(=O)CCc1nc2ccccc2c(=O)[nH]1", "label": "f"}
{"compound": "CCN(CC)S(=O)(=O)c1ccc(Nc2nc3ccccc3n3nnnc23)cc1", "label": "f"}
{"compound": "COc1cc(/C=N/NC(=O)c2ccncc2)ccc1OC(=O)c1ccccc1Cl", "label": "f"}
{"compound": "O=C(N/N=C/c1cn(-c2ccccc2)nc1-c1cccs1)c1ccccc1F", "label": "f"}
{"compound": "O=C(CN1CCN(Cc2ccccc2)CC1)Nc1ccc([N+](=O)[O-])cc1C(=O)Nc1ccccc1F", "label": "f"}
{"compound": "CSc1nc2ncc3c(n2n1)CC1c2ccccc2CCN1C3=O (stereo unspecified)", "label": "f"}
{"compound": "N#Cc1cnn2cc(-c3ncc(C(F)(F)F)cc3Cl)cnc12", "label": "t"}
{"compound": "S=C(Nc1ccc(N2CCOCC2)cc1)Nc1ccc2nc(-c3ccco3)c(-c3ccco3)nc2c1", "label": "f"}
{"compound": "COc1cc(-c2cc(C(=O)NCc3ccco3)c3ccccc3n2)cc(OC)c1OC", "label": "t"}
{"compound": "Cc1ccc(S(=O)(=O)N(C)C)cc1NC(=O)COC(=O)Cc1n[nH]c(=O)c2ccccc12", "label": "f"}
{"compound": "COc1ccccc1NC(=O)c1ccc(NC(=O)Cc2n[nH]c(=O)c3ccccc23)cc1", "label": "f"}
{"compound": "CCOC(=O)c1ccccc1OCc1cc(/C=N/NC(=O)c2cccnc2)ccc1OC", "label": "t"}
{"compound": "O=c1oc(-c2ccco2)nc2c1cnn2-c1ccccc1", "label": "f"}
{"compound": "NC(=O)c1cccc(Nc2nc(C(N)CCc3ccccc3)cs2)n1 (stereo unspecified)", "label": "f"}
{"compound": "CC(NC(=O)c1cc2c(=O)n(C)c3ccccc3c2n1C)c1ccc2c(c1)OCCO2 (stereo unspecified)", "label": "f"}
{"compound": "CN1CCC(N(C)C(=O)CCc2nc3ccccc3c(=O)[nH]2)CC1", "label": "f"}
{"compound": "CC(=O)Nc1cccc(-c2cc(NC=O)c3ncc(-c4cccc(C(C)=O)c4)n3c2)c1", "label": "f"}

---

Test system: H9c2 cardiomyocytes, 2-deoxyglucose stress, ATP luminescence, 2 h
Assay: H9c2 cell survival under 2-deoxyglucose stress – uHTS hits, dose response (AID 588780)
Activity calls are given as the source filed them.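 How the source made its calls: active means compounds whose fitted half-maximal concentration in the cell-protection dose series is at or below a set limit; inactive means the rest.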
Classes used: active, inactive

{"molecule": "O=c1cc(CSc2ccc([N+](=O)[O-])cc2)nc2sccn12", "label": "inactive"}
{"molecule": "Cc1nc2c(c(=O)n1CCC1=CCCCC1)c1nc3ccccc3nc1n2/N=C/c1ccccc1", "label": "active"}
{"molecule": "Cc1ccccc1NP(=O)(Oc1ccccc1F)Oc1ccccc1F", "label": "active"}
{"molecule": "COc1ccc(-c2nn3c(-c4ccccc4)nnc3s2)cc1OC", "label": "inactive"}
{"molecule": "COc1ccc2[nH]c(=O)c(CN(Cc3cccnc3)S(=O)(=O)c3ccccc3F)cc2c1", "label": "inactive"}
{"molecule": "O=C(CCc1nc2ccccc2c(=O)[nH]1)Nc1ccc(N2CCCCC2)cc1", "label": "active"}
{"molecule": "CCOC(=O)c1nc(Nc2ccc(C(=O)OC)cc2)c2ccccc2n1", "label": "inactive"}
{"molecule": "Cc1ccc(NCc2ccc(O)c3ncccc23)cc1C", "label": "inactive"}
{"molecule": "COc1cc2c(cc1OC)C(COc1ccc3c(C)cc(=O)oc3c1)N(C(=O)c1ccco1)CC2 (stereo not given)", "label": "active"}
{"molecule": "COc1cc(NC(=O)c2cc3c(C)nc4ccccc4c3o2)cc(OC)c1OC", "label": "inactive"}

---

Test system: H9c2 cardiomyocytes, 2-deoxyglucose stress, ATP luminescence, 2 h
Test: H9c2 cell survival under 2-deoxyglucose stress – uHTS hits, dose response (AID 588780)
Active and inactive are the calls of the source.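 The calls were made as follows: active = compounds whose fitted half-maximal concentration in the cell-protection dose series is at or below a set limit; inactive = the rest.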
Here, each record is paired with measured IC50 data.
result_type: IC50

{"compound": "COc1ccc(C(=O)NNC(=O)c2ccc3ccccc3n2)cc1", "assayed_system": "H9c2 cardiomyocytes, 2-deoxyglucose stress, ATP luminescence, 2 h", "result_type": "IC50", "recorded_result": "> 79 µM (inactive)"}
{"compound": "COc1ccc(-c2cnc3c(NC=O)cc(-c4cccc(NS(C)(=O)=O)c4)cn23)cc1OC", "assayed_system": "H9c2 cardiomyocytes, 2-deoxyglucose stress, ATP luminescence, 2 h", "result_type": "IC50", "recorded_result": "14.4 µM"}
{"compound": "CCCc1cc2c(cc1NC(=O)c1ccc(Br)cc1)OCO2", "assayed_system": "H9c2 cardiomyocytes, 2-deoxyglucose stress, ATP luminescence, 2 h", "result_type": "IC50", "recorded_result": "29.3 µM"}
{"compound": "COc1ccc(OCC(O)Cn2c(Nc3cccc(C)c3)nc3c2c(=O)n(C)c(=O)n3C)cc1 (stereo not given)", "assayed_system": "H9c2 cardiomyocytes, 2-deoxyglucose stress, ATP luminescence, 2 h", "result_type": "IC50", "recorded_result": "> 79 µM (inactive)"}
{"compound": "O=C(CSc1nc2ccccc2c(=O)[nH]1)c1ccccc1", "assayed_system": "H9c2 cardiomyocytes, 2-deoxyglucose stress, ATP luminescence, 2 h", "result_type": "IC50", "recorded_result": "> 79 µM (inactive)"}
{"compound": "CCOc1ccc2[nH]c(=O)c(CN(Cc3nnnn3Cc3ccco3)C3CCCCC3)cc2c1", "assayed_system": "H9c2 cardiomyocytes, 2-deoxyglucose stress, ATP luminescence, 2 h", "result_type": "IC50", "recorded_result": "> 79 µM (inactive)"}
{"compound": "O=C(CCC(=O)N1CCN(C2CCCCC2)CC1)Nc1nnc(C(F)(F)F)s1", "assayed_system": "H9c2 cardiomyocytes, 2-deoxyglucose stress, ATP luminescence, 2 h", "result_type": "IC50", "recorded_result": "> 79 µM (inactive)"}
{"compound": "O=C(O)c1nn(CC(=O)N2CCN(c3ccccc3)CC2)c(=O)c2ccccc12", "assayed_system": "H9c2 cardiomyocytes, 2-deoxyglucose stress, ATP luminescence, 2 h", "result_type": "IC50", "recorded_result": "> 79 µM (inactive)"}
{"compound": "CCOC(=O)N1CCc2c(sc(NC(=O)CN3CCOCC3)c2C(=O)Nc2ccccc2)C1", "assayed_system": "H9c2 cardiomyocytes, 2-deoxyglucose stress, ATP luminescence, 2 h", "result_type": "IC50", "recorded_result": "54.6 µM (inactive)"}
{"compound": "O=C(CSc1ccc(-c2ccccn2)nn1)N1CCCc2ccccc21", "assayed_system": "H9c2 cardiomyocytes, 2-deoxyglucose stress, ATP luminescence, 2 h", "result_type": "IC50", "recorded_result": "> 79 µM (inactive)"}
